Tested on: K-562 leukemia
procedure-text: NCI tumour cell line growth inhibition, 48 h
observed-property: TGI

> print(dat)
                                   compound  observed.property  measurement
1  CCOC(=O)C1(C(C)=O)OC(=O)c2cnccc21 (stereo unspecified)                TGI     > 100 µM
2  COc1ccc2c(c1)-c1c(c3cc(OC)ccc3n1CCN1CCOCC1)CC2                TGI      36.2 µM
3  CSC1C=C(C(C)C)CCC1(C)SC (stereo unspecified)                TGI      40.9 µM
4  COc1cc(C2c3cc4c(cc3[C@@H](NCCCN3CCCC3=O)C3COC(=O)[C@H]23)OCO4)cc(OC)c1O (stereo partly specified)                TGI     > 100 µM
5            COc1ccc(-c2nc3cc(F)ccc3s2)cc1O                TGI     > 100 µM
6  Cc1ccc(S(=O)(=O)N2CCCN(S(=O)(=O)c3ccc(C)cc3)CC2)cc1                TGI     > 100 µM

Reference source: PubChem BioAssay (NCI)
